Reference source: ChEMBL document CHEMBL3885881

Overview of recorded PLATELET COUNT for various compounds
- Species on record: Rattus norvegicus
- method.description: DrugMatrix - Regimen: Daily Repeat
- Assay type: toxicity, organism-based, Sprague-Dawley
- Design: regimen Daily Repeat, gender Male, age 6-8 weeks
- test.context: in vivo, po, 0 mg/kg, 120 h, tissue Blood, route oral GAVAGE, dose level Control, time 5 day, vehicle .5 % CMC
# output: bare number, implied unit x10E3/uL

Solved entries (count: 6):
>  <compound>
CC(C)Cc1ccc([C@H](C)C(=O)O)cc1

>  <unit.string>
x10E3/uL

>  <number>
1298

$$$$
>  <compound>
CCN1CCN(c2cc3c(cc2F)c(=O)c(C(=O)O)cn3C2CC2)CC1

>  <unit.string>
x10E3/uL

>  <number>
1155.8

$$$$
>  <compound>
COc1cc(NC(C)CCCN)c2ncccc2c1 (stereo unspecified)

>  <unit.string>
x10E3/uL

>  <number>
1053.67

$$$$
>  <compound>
CC(=O)Nc1ccc2c(c1)Cc1ccccc1-2

>  <unit.string>
x10E3/uL

>  <number>
1196

$$$$
>  <compound>
Cc1cc2c(s1)Nc1ccccc1N=C2N1CCN(C)CC1

>  <unit.string>
x10E3/uL

>  <number>
1211.67

$$$$
>  <compound>
COc1ccc(Cl)cc1C(=O)NCCc1ccc(S(=O)(=O)NC(=O)NC2CCCCC2)cc1 [GLYBURIDE]

>  <unit.string>
x10E3/uL

>  <number>
1042.83

$$$$

Query string: Form field: reported PLATELET COUNT of CN(C)CCC=C1c2ccccc2COc2ccccc21 [DOXEPIN]
Result string: 1177

Query string: Form field: reported PLATELET COUNT of "O=C(O)CCc1nc(-c2ccccc2)c(-c2ccccc2)o1"
Result string: 1274
